I'd appreciate it if you could supply cAMP EC50 values for the items below.
# assayed.system: T1, PTHR-1 (species and cells not stated for the assay) (Homo sapiens (Human), UniProt Q03431 27-593)
# T1 sequence: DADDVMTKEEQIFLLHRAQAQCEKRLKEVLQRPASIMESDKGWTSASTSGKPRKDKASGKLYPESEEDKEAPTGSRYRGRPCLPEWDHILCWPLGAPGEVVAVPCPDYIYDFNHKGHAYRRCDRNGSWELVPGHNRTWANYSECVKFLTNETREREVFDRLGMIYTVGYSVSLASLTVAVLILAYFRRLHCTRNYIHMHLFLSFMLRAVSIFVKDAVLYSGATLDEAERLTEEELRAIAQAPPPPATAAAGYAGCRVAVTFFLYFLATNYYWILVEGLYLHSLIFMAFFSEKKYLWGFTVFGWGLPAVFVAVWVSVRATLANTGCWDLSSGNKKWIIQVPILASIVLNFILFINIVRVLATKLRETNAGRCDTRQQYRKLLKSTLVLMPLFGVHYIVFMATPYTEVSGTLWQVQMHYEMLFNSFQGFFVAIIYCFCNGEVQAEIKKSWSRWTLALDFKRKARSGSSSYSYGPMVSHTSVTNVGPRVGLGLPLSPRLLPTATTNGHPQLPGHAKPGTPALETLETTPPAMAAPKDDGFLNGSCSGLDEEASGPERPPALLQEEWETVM
# experimental.details: cell-based or functional assay
Non-standard residues stand in square brackets, D forms with d. Primed or numbered codes have the meaning given here. No end group written: not given here. APC = aminopyrrolidine carboxylic acid (2-aminopyrrolidine-4-carboxylic acid); ACPC(3) = 2-aminocyclopentane carboxylic acid (cyclic beta residue); ACPC″ = 2-aminocyclopentane carboxylic acid (X); β3hW = N[C@H](CC(=O)O)Cc1c[nH]c2ccccc12; hArg = N=C(N)NCCCC[C@H](N)C(=O)O; β3hE = N[C@@H](CCC(=O)O)CC(=O)O; β3hF = N[C@H](CC(=O)O)Cc1ccccc1; β3hK = NCCCC[C@H](N)CC(=O)O; β3hM = CSCC[C@H](N)CC(=O)O; β3hD = NC(CC(=O)O)CC(=O)O; Aib = CC(C)(N)C(=O)O
Numbers only, in nM.

Here are 3 binders together with their reported answers.
| binder | reported.result |
| --- | --- |
| [ACPC″]V[Aib]E[ACPC″]Q[ACPC″]MHQ[hArg]AK[β3hW]LNS[β3hM]RRV[β3hE]WLR[β3hK]KLQ[β3hD]VHN[β3hF]-NH2 (also: β3 residues (bold, underlined) not marked in the text) [M-X1,5,7-D6] | 0.79 |
| AVAEIQ[ACPC″]MHQ[hArg]AKWLNSMRRVEWLRKKLQDVHNF-NH2 (not fully specified (residues 14, 18, 22, 26, 30, 34)) [M-D6] | 0.44 |
| [ACPC″]V[Aib]E[ACPC″]Q[ACPC″]MHQ[hArg]AK[ACPC″]LNS[ACPC″]RRV[APC]WLR[APC]KLQ[ACPC″]VHN[ACPC″]-NH2 [M-X1,5,7-FcycD6] | 0.78 |

Each binder below has a reported value. Please supply its cAMP EC50.
1. [ACPC″]V[Aib]EIQ[ACPC″]MHQ[hArg]AK[β3hW]LNS[β3hM]RRV[β3hE]WLR[β3hK]KLQ[β3hD]VHN[β3hF]-NH2 (also: β3 residues (bold, underlined) not marked in the text) [M-D6_ACPC(1,7)]
2. [ACPC″]V[Aib]EIQ[ACPC″]MHQ[hArg]AKWLNSMRRVEWLRKKLQDVHNF-NH2 [M-ACPC(1,7)]
3. H[ACPC(3)]V[Aib]E[ACPC(3)]Q[ACPC(3)]MHQ[hArg]AK[ACPC(3)]LNS[ACPC(3)]RRV[β3hE]WLR[APC]KLQ[β3hD]VHN[ACPC(3)]-NH2 (not fully specified) [M-X1,5,7-CycD6]
4. [ACPC″]V[Aib]E[ACPC″]Q[ACPC″]MHQ[hArg]AKWLNSMRRVEWLRKKLQDVHNF-NH2 [M-ACPC(1,5,7)]
5. [ACPC″]V[Aib]EIQ[ACPC″]MHQ[hArg]AK[ACPC″]LNS[ACPC″]RRV[APC]WLR[APC]KLQ[ACPC″]VHN[ACPC″]-NH2 [M-FcycD6_ACPC(1,7)]
6. AVAEIQ[ACPC″]MHQ[hArg]AK[ACPC″]LNS[ACPC″]RRV[APC]WLR[APC]KLQ[ACPC″]VHN[ACPC″]-NH2 [M-FcycD6]

A)
1. 0.83
2. 0.52
3. 0.31
4. 0.4
5. 1.77
6. 0.51
